Target Of Assay: DNA topoisomerase 2-alpha (Mus musculus) (UniProt Q01320)
Sequence (Q01320 whole entry): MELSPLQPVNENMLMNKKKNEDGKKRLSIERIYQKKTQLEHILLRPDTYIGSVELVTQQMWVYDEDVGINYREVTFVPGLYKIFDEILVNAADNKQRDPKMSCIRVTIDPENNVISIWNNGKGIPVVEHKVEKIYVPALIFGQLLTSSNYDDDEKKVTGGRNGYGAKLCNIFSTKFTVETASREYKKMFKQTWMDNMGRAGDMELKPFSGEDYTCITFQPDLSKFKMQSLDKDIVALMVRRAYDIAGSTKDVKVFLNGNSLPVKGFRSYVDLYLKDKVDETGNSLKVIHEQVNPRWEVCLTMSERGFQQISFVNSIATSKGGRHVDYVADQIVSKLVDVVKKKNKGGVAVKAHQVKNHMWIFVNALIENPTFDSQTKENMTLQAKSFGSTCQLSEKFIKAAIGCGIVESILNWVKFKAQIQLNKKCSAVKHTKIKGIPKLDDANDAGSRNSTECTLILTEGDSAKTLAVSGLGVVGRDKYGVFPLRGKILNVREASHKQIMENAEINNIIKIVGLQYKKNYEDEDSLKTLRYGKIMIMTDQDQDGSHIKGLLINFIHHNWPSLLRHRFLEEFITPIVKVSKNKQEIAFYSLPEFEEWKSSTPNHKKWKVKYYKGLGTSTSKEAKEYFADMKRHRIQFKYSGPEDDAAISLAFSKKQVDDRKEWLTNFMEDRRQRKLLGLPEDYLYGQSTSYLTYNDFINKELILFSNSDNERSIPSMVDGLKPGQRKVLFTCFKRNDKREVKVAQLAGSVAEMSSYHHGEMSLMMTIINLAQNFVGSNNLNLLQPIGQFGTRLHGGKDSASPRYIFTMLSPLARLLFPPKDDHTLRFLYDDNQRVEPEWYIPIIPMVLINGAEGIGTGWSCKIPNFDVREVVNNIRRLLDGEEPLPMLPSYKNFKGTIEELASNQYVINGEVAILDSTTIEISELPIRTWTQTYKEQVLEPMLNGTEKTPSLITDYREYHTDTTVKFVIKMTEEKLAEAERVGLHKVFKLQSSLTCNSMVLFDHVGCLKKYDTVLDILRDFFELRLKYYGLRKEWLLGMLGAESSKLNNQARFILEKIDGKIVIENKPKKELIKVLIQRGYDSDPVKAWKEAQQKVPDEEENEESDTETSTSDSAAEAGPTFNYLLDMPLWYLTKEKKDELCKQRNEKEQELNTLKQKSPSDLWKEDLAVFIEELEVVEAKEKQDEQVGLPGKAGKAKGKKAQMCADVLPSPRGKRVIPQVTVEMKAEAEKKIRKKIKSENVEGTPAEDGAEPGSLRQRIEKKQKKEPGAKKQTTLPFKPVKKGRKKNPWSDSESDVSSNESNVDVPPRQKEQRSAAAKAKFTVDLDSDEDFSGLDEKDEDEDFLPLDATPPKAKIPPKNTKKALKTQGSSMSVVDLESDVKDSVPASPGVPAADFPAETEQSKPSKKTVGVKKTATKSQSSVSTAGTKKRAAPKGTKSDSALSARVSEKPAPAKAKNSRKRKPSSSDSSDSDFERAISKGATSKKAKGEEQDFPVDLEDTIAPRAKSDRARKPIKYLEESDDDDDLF
Assay Procedure: Inhibition of topoisomerase 2 from mouse P388 cells assessed as relaxation of pBR322 DNA by agarose gel electrophoresis relative to etoposide
Type: cell-based
Test Readout: Ratio
Number only, please.

Lab book: Ratio of O=C1/C(=N/Nc2ccc([N+](=O)[O-])cc2)CCCc2ccccc21 noted as 4.6

Ratio reported for this compound Cc1cccc(N/N=C2\CCCc3ccccc3C2=O)c1 : 4.66

Entry O=C1/C(=N/Nc2cccc([N+](=O)[O-])c2)CCCc2ccccc21 ; Ratio = 4.53

Notebook: O=C1/C(=N/Nc2cccc(Cl)c2)CCCc2ccccc21 , Ratio read as 5

Measured Ratio of O=C1/C(=N/Nc2ccccc2)CCCc2ccccc21 : 4.4

For this compound ( CC(=O)c1ccc(N/N=C2\CCCc3ccccc3C2=O)cc1 ), measured Ratio is 4.33

Entry Cc1ccc(N/N=C2\CCCc3ccccc3C2=O)cc1 , Ratio reported as 4.27

Lookup result for COc1ccc(N/N=C2\CCCc3ccccc3C2=O)cc1 ; measured Ratio: 4.9

====

Test system: Penicillium italicum
Assay Procedure: Antimicrobial activity against Penicillium italicum at 1.25 ug/mL by agar diffusion method
Format: functional
Run Conditions: read-out: IZ
Provide the reported zone of inhibition at 1.25 µg/mL of each item.
Report only the number, with the unit mm understood.

Looking up CC(=O)c1ccc(N/N=C2\CCCc3ccccc3C2=O)cc1 , I found its zone of inhibition at 1.25 µg/mL recorded as 4

The compound identified as Cc1cccc(N/N=C2\CCCc3ccccc3C2=O)c1 registered its zone of inhibition at 1.25 µg/mL at 3

zone of inhibition at 1.25 µg/mL reported for this compound c1ccc2c(c1)CCCc1nnc3nncn3c1-2 : 0

Looking up CN(C/C=C/C#CC(C)(C)C)Cc1cccc2ccccc12 [TERBINAFINE] , I see its zone of inhibition at 1.25 µg/mL listed as 4

Lab book: zone of inhibition at 1.25 µg/mL of O=C1/C(=N/Nc2cccc(Cl)c2)CCCc2ccccc21 noted as 0

Record O=C1/C(=N/Nc2cccc([N+](=O)[O-])c2)CCCc2ccccc21 , field zone of inhibition at 1.25 µg/mL: 0

Record summary for O=C1/C(=N/Nc2ccc([N+](=O)[O-])cc2)CCCc2ccccc21 : reported zone of inhibition at 1.25 µg/mL = 0

Form: compound = Cc1ccc(N/N=C2\CCCc3ccccc3C2=O)cc1 ; zone of inhibition at 1.25 µg/mL = 0

====

Tested on: Candida albicans
Assay Procedure: Antimicrobial activity against Candida albicans at 2.5 ug/mL by agar diffusion method
Type: functional
Run Conditions: read-out: IZ
Give zone of inhibition at 2.5 µg/mL for every item shown.
Give the value; after it, write the unit.

// returns zone of inhibition at 2.5 µg/mL for Cc1cccc(N/N=C2\CCCc3ccccc3C2=O)c1 with Candida albicans; value = 6 mm

Cc1ccc(N/N=C2\CCCc3ccccc3C2=O)cc1 on Candida albicans gives zone of inhibition at 2.5 µg/mL = 6 mm

The value of zone of inhibition at 2.5 µg/mL recorded for O=C1/C(=N/Nc2cccc([N+](=O)[O-])c2)CCCc2ccccc21 when tested on Candida albicans reads 8 mm

Candida albicans zone of inhibition at 2.5 µg/mL of O=C1/C(=N/Nc2cccc(Cl)c2)CCCc2ccccc21 is 11 mm

zone of inhibition at 2.5 µg/mL on Candida albicans for CC(=O)c1ccc(N/N=C2\CCCc3ccccc3C2=O)cc1 is 7 mm

So the reported zone of inhibition at 2.5 µg/mL for O=C1/C(=N/Nc2ccc([N+](=O)[O-])cc2)CCCc2ccccc21 , on Candida albicans, turned out to be 6 mm

// compound CN(C/C=C/C#CC(C)(C)C)Cc1cccc2ccccc12 , assay Candida albicans, zone of inhibition at 2.5 µg/mL value: 10 mm

Candida albicans zone of inhibition at 2.5 µg/mL of c1ccc2c(c1)CCCc1nnc3nncn3c1-2 is 4 mm

====

Tested on: Escherichia coli
Assay Procedure: Antimicrobial activity against Escherichia coli at 2.5 ug/mL by agar diffusion method
Type: functional
Run Conditions: read-out: IZ
Could you please report measured zone of inhibition at 2.5 µg/mL for the items listed next?
I only need the number, in mm, no unit after it.

What the record says about Cc1ccc(N/N=C2\CCCc3ccccc3C2=O)cc1 : zone of inhibition at 2.5 µg/mL is 0

zone of inhibition at 2.5 µg/mL reading for c1ccc2c(c1)CCCc1nnc3nncn3c1-2 : 0

# zone of inhibition at 2.5 µg/mL (molecule: Cc1cccc(N/N=C2\CCCc3ccccc3C2=O)c1 ) is 6

The molecule listed as O=C1/C(=N/Nc2ccc([N+](=O)[O-])cc2)CCCc2ccccc21 has a reported zone of inhibition at 2.5 µg/mL of 0

Given item O=C1/C(=N/Nc2cccc([N+](=O)[O-])c2)CCCc2ccccc21 , the value recorded as its zone of inhibition at 2.5 µg/mL is 5

Value of measured zone of inhibition at 2.5 µg/mL for the entry CC(=O)c1ccc(N/N=C2\CCCc3ccccc3C2=O)cc1 : 0

// zone of inhibition at 2.5 µg/mL lookup, molecule = CN(C/C=C/C#CC(C)(C)C)Cc1cccc2ccccc12 , result: 20

// recorded zone of inhibition at 2.5 µg/mL for O=C1/C(=N/Nc2cccc(Cl)c2)CCCc2ccccc21 : 0

====

Tested on: Staphylococcus aureus
Assay Procedure: Antimicrobial activity against Staphylococcus aureus at 2.5 ug/mL by agar diffusion method
Type: functional
Run Conditions: read-out: IZ
Test Readout: zone of inhibition at 2.5 µg/mL (mm)
The reply should be a number in mm, with the unit left off.

The reported value for O=C1/C(=N/Nc2ccc([N+](=O)[O-])cc2)CCCc2ccccc21 in terms of zone of inhibition at 2.5 µg/mL is 3

What the record says about CN(C/C=C/C#CC(C)(C)C)Cc1cccc2ccccc12 : zone of inhibition at 2.5 µg/mL is 6

zone of inhibition at 2.5 µg/mL in this record for CC(=O)c1ccc(N/N=C2\CCCc3ccccc3C2=O)cc1 : 8

The recorded zone of inhibition at 2.5 µg/mL for entry Cc1ccc(N/N=C2\CCCc3ccccc3C2=O)cc1 equals 8

Quick note, zone of inhibition at 2.5 µg/mL for c1ccc2c(c1)CCCc1nnc3nncn3c1-2 landed at 8

// field: zone of inhibition at 2.5 µg/mL; key: O=C1/C(=N/Nc2cccc(Cl)c2)CCCc2ccccc21 ; value = 9

Kindly note the recorded zone of inhibition at 2.5 µg/mL for Cc1cccc(N/N=C2\CCCc3ccccc3C2=O)c1 , which is 8

zone of inhibition at 2.5 µg/mL measured on O=C1/C(=N/Nc2cccc([N+](=O)[O-])c2)CCCc2ccccc21 = 6

====

Target Of Assay: DNA topoisomerase 1 (Homo sapiens)
Assay Procedure: Inhibition of topoisomerase 1 relative to etoposide
Test Readout: Ratio
Answer as a number with no unit attached.

Ratio for CC(=O)c1ccc(N/N=C2\CCCc3ccccc3C2=O)cc1 is 4.3

Ratio reading for O=C1/C(=N/Nc2ccccc2)CCCc2ccccc21 : 4.3

Value of measured Ratio for the entry Cc1ccc(N/N=C2\CCCc3ccccc3C2=O)cc1 : 4.2

Field Ratio (entry O=C1/C(=N/Nc2cccc(Cl)c2)CCCc2ccccc21 ) reads 4.9

molecule Cc1cccc(N/N=C2\CCCc3ccccc3C2=O)c1 , Ratio observed: 4.46

Briefly, Ratio measured for O=C1/C(=N/Nc2ccc([N+](=O)[O-])cc2)CCCc2ccccc21 : 4.4

Reported Ratio ( O=C1/C(=N/Nc2cccc([N+](=O)[O-])c2)CCCc2ccccc21 ) = 4.5

Ratio recorded for this molecule, COc1ccc(N/N=C2\CCCc3ccccc3C2=O)cc1 , is 4.8

====

Tested on: Penicillium italicum
Assay Procedure: Antimicrobial activity against Penicillium italicum at 2.5 ug/mL by agar diffusion method
Assay type: functional
Run Conditions: read-out: IZ
Test Readout: zone of inhibition at 2.5 µg/mL (mm)
Lab book: enter the figure in mm, no units written.

Short answer on Penicillium italicum for O=C1/C(=N/Nc2cccc(Cl)c2)CCCc2ccccc21 , zone of inhibition at 2.5 µg/mL: 0

Lab entry: Penicillium italicum assay, compound Cc1cccc(N/N=C2\CCCc3ccccc3C2=O)c1 , zone of inhibition at 2.5 µg/mL = 6

The reported Penicillium italicum zone of inhibition at 2.5 µg/mL of c1ccc2c(c1)CCCc1nnc3nncn3c1-2 is 0

Lab note: compound Cc1ccc(N/N=C2\CCCc3ccccc3C2=O)cc1 tested on Penicillium italicum; recorded zone of inhibition at 2.5 µg/mL was 0

Log: Penicillium italicum, compound O=C1/C(=N/Nc2ccc([N+](=O)[O-])cc2)CCCc2ccccc21 , zone of inhibition at 2.5 µg/mL = 0

Query CN(C/C=C/C#CC(C)(C)C)Cc1cccc2ccccc12 [TERBINAFINE] on Penicillium italicum; zone of inhibition at 2.5 µg/mL returned: 9

The reported zone of inhibition at 2.5 µg/mL value, Penicillium italicum, for CC(=O)c1ccc(N/N=C2\CCCc3ccccc3C2=O)cc1 reads 6

Short answer on Penicillium italicum for O=C1/C(=N/Nc2cccc([N+](=O)[O-])c2)CCCc2ccccc21 , zone of inhibition at 2.5 µg/mL: 0
